Molecular target: T1, DRH-3 (Caenorhabditis elegans, UniProt Q93413 1-1119)
T1 sequence: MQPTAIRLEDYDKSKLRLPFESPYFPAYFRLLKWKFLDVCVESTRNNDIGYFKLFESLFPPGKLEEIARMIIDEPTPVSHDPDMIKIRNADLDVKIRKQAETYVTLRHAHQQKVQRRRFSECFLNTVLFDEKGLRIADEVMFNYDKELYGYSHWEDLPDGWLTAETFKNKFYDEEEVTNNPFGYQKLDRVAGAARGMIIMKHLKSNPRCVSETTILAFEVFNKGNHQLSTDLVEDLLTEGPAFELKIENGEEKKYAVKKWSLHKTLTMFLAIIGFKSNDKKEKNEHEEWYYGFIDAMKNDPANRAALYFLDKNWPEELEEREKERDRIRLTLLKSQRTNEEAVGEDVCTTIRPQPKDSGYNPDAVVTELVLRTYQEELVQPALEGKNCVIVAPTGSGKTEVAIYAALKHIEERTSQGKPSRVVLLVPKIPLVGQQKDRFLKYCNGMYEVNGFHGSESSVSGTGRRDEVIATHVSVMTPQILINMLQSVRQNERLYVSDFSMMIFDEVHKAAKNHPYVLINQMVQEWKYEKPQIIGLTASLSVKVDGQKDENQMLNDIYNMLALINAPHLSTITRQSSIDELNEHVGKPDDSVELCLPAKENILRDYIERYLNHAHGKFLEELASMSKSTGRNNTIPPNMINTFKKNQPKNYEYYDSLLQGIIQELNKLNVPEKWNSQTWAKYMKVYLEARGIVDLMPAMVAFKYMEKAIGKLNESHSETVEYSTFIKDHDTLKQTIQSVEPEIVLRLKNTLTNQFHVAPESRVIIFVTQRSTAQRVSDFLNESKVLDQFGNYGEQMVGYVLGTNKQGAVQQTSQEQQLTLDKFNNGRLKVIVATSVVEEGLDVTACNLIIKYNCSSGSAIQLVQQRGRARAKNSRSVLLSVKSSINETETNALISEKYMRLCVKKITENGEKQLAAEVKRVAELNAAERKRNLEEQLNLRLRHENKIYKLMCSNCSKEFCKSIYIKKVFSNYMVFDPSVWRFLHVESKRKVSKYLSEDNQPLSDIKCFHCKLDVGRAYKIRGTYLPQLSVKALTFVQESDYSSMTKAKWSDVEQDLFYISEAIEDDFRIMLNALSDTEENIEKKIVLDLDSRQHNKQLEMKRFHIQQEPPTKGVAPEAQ
Experiment: EMSA
readout type: Kd (nM)
Note: unit nM is implicit; provide only the numeric part.

Input: Which Kd value is on record for ds22 (dsRNA) RNA 1: GGGUACAGACUGACUAGGAUCG RNA 2: CGAUCCUAGUCAGUCUGUACCC ?
Output: 230
